Molecular target: Proteasome subunit beta type-9 (Homo sapiens, UniProt P28065)
Sequence (P28065 whole entry): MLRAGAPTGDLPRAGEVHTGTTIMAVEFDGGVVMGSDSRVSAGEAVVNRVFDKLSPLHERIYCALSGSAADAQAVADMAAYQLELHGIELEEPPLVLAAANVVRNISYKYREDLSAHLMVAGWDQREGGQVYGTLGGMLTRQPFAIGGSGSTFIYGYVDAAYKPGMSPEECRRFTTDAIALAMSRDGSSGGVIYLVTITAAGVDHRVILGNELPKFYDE
Test: Inhibition of proteasome subunit beta-1i in human RPMI8226 cells using BODIPY-NC001 by fluorescent densitometry
Assay type: cell-based, RPMI-8226
pIC50: −log10 of the molar value.
readout: pIC50

Ask | Name the recorded pIC50 of the compound listed here: CCCC[C@H](NC(=O)[C@@H]1CC(F)(F)CN1C(=O)[C@H](C)NC(=O)CN=[N+]=[N-])C(=O)N[C@@H](CC1CCCCC1)C(=O)[C@@]1(C)CO1
Reply | 6.89

Ask | Answer with the recorded pIC50 for the compound listed here: CC1=C(C(=O)N[C@H](C)C(=O)N[C@@H](Cc2c[nH]c3ccccc23)C(=O)N[C@H](/C=C/S(C)(=O)=O)Cc2ccccc2)Cc2ccccc21
Reply | < 4.00

Ask | Tell me pIC50 reported for COc1ccc(C[C@H](NC(=O)[C@@H](C)NC(=O)C2=C(C)c3ccccc3C2)C(=O)N[C@@H](CC2CCCCC2)C(=O)[C@@]2(C)CO2)cc1
Reply | < 4.00

Reference source: ChEMBL document CHEMBL3351747
